Give measured ELISA absorbance at 450 nm for each item. Keep answers brief.
molecular target: T1, recombinant human DLL4 (Cat# 1506-D4/CF, R&D Systems) (human, UniProt Q9NR61 27-529); assay: ELISA, DLL4 coated, Fab 6.67 nM
T1 construct: Bought protein; also called hDLL4; rHuman DLL4
// units = A450; emit number, no label

Prompt line: For the binder Fab VH1-46_IGHD6-6*01_IGHJ1*01 S102A/S103P/S104F/H111F I51A/N52L/S54T/G56H & L6_IGKJ1*01 S28N/S30D/S31H S52L/A55G (Fab, V domains shown, Fab made in E. coli: VH on CH1 with His6 and Flag tags (Plasmid A), VL on kappa CL (Plasmid C); also called H: APFF ALTH & L: NDH LG) VH: QVQLVQSGAEVKKPGASVKVSCKASGYTFTSYYMHWVRQAPGQGLEWMGIALPTGHSTSYAQKFQGRVTMTRDTSTSTVYMELSSLRSEDTAVYYCAREEYAPFSAEYFQFWGQGTLVTVSS VL: EIVLTQSPATLSLSPGERATLSCRASQNVDHYLAWYQQKPGQAPRLLIYDALNRGTGIPARFSGSGSGTDFTLTISSLEPEDFAVYYCQQRSNWPPWTFGQGTKVEIKR , what ELISA absorbance at 450 nm is on record?
Response line: 0.212

Prompt line: For the binder Fab VH1-46_IGHD6-6*01_IGHJ1*01 S102A/S103P/S104F/H111F I51V/N52L/S54T/G56H & L6_IGKJ1*01 S28N/S30D/S31H (Fab, V domains shown, Fab made in E. coli: VH on CH1 with His6 and Flag tags (Plasmid A), VL on kappa CL (Plasmid C); also called H: APFF VLTH & L: NDH) VH: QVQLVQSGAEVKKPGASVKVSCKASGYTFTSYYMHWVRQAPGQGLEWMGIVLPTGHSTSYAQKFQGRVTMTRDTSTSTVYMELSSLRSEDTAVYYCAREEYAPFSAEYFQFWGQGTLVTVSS VL: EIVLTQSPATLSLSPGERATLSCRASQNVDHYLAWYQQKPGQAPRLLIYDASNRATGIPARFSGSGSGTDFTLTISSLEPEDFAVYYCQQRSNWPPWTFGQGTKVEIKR , what ELISA absorbance at 450 nm is on record?
Response line: 0.776
